- Organism: Rattus norvegicus
- METHOD DESCRIPTION: Open TG-GATES - Regimen: Daily Repeat
- Type: toxicity, organism-based, Sprague-Dawley
- Parameters: regimen Daily Repeat, gender Male, age 6 weeks
- CONDITION DESCRIPTION: in vivo, po, 0 mg/kg, […], tissue Blood, route gavage, dose level Control, time 14 day
Record form. Attribute: Lym. Fill in for each entry.
One number for each entry, in %.

MOLECULE	VAL
O=C(CCCN1CCC(O)(c2ccc(Cl)cc2)CC1)c1ccc(F)cc1 [HALOPERIDOL]	78.4
CN(C)CCN(Cc1cccs1)c1ccccn1	81.8

Give Lym for all molecules that follow.
1. NNC(=O)c1ccncc1 [ISONIAZID]
2. NC(N)=Nc1nc(CSCCC(N)=NS(N)(=O)=O)cs1 [FAMOTIDINE]
3. CCCNC(=O)NS(=O)(=O)c1ccc(Cl)cc1 [CHLORPROPAMIDE]

Reply:
1. 78.2
2. 81.8
3. 78.4

Give Lym for all molecules that follow.
1. COc1ccc2[nH]c([S+]([O-])Cc3ncc(C)c(OC)c3C)nc2c1 (configuration not stated) [OMEPRAZOLE]
2. COC1=CC(=O)C[C@@H](C)[C@]12Oc1c(Cl)c(OC)cc(OC)c1C2=O [GRISEOFULVIN]
3. CN(C)CCCN1c2ccccc2CCc2ccccc21 [IMIPRAMINE]
4. CN1C(=O)CN=C(c2ccccc2)c2cc(Cl)ccc21 [DIAZEPAM]
5. CCOc1ccc(NC(=O)CC(C)O)cc1 (configuration not stated) [BUCETIN]
6. CCOC(=O)CCC(=O)O[C@H]1[C@H](O[C@@H]2[C@@H](C)[C@H](O[C@H]3C[C@@](C)(OC)[C@@H](O)[C@H](C)O3)[C@@H](C)C(=O)O[C@H](CC)[C@@](C)(O)[C@H](O)[C@@H](C)C(=O)[C@H](C)C[C@@]2(C)O)O[C@H](C)C[C@@H]1N(C)C [ERYTHROMYCIN ETHYLSUCCINATE]
7. CC1=C(/C=C/C(C)=C/C=C/C(C)=C/CO)C(C)(C)CCC1 [RETINOL]

Reply:
[79, 81.2, 79.2, 80.6, 75.8, 80.2, 78]

Data origin: ChEMBL document CHEMBL3885861
